Target: Cytochrome P450 1A2 (Homo sapiens) (UniProt P05177)
Sequence (P05177 whole entry, looked up): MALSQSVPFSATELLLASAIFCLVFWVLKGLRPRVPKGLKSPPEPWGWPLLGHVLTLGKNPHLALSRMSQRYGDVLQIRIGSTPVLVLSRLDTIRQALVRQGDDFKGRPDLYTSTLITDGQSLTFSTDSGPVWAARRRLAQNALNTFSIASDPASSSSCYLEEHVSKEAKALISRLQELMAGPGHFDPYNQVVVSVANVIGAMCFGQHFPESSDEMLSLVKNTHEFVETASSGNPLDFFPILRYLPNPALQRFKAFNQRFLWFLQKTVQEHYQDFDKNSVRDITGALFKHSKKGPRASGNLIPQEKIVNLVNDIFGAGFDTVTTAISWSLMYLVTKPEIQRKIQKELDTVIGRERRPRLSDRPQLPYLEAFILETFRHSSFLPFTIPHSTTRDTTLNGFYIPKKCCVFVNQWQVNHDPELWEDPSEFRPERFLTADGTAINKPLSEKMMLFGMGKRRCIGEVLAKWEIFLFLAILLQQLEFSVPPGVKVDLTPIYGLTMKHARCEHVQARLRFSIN
Test: p450-cyp1a2 (AID 410)
Conditions: recombinant CYP1A2, luciferin-ME demethylation, luminescence; series mostly up to 57 µM
Results filed as inconclusive are left out. Calls of active or inactive are those of the source. Calls follow the shape of the full dose curve.
Labels: 1.0 for active, 0.0 for inactive

| MOLECULAR_STRING | SUBJECT_OF_TEST | LABEL_CLASS |
| --- | --- | --- |
| CC(=O)ON(C(C)=O)S(=O)(=O)c1ccc(Cl)cc1 | Cytochrome P450 1A2 (Homo sapiens) (UniProt P05177) | 0.0 |
| Nc1nc(NCCc2ccc(O)cc2)nc2nc(-c3ccco3)nn12 | Cytochrome P450 1A2 (Homo sapiens) (UniProt P05177) | 1.0 |
| CCn1ccnc1C[C@@H]1COc2ccccc2O1 | Cytochrome P450 1A2 (Homo sapiens) (UniProt P05177) | 1.0 |
| CC[C@]1(c2ncc[nH]2)Cc2ccccc2O1 | Cytochrome P450 1A2 (Homo sapiens) (UniProt P05177) | 0.0 |
| C[C@@H](CCCCC(=O)Nc1ccc(C(F)(F)F)cc1)NCCc1cnc[nH]1 | Cytochrome P450 1A2 (Homo sapiens) (UniProt P05177) | 0.0 |
| N[C@](CC1c2ccccc2Oc2ccccc21)(C(=O)O)[C@@H]1C[C@@H]1C(=O)O | Cytochrome P450 1A2 (Homo sapiens) (UniProt P05177) | 1.0 |
| CC(C)NC[C@H](O)c1ccc(NS(C)(=O)=O)cc1 | Cytochrome P450 1A2 (Homo sapiens) (UniProt P05177) | 0.0 |
| O=C(NCCCN1CCCCCC1)[C@@H](c1ccccc1)C1CCCCC1 | Cytochrome P450 1A2 (Homo sapiens) (UniProt P05177) | 1.0 |
| Nc1c(S(=O)(=O)O)cc(Nc2ccc(Nc3nc(Cl)nc(Nc4ccc(S(=O)(=O)O)cc4)n3)c(S(=O)(=O)O)c2)c2c1C(=O)c1ccccc1C2=O | Cytochrome P450 1A2 (Homo sapiens) (UniProt P05177) | 1.0 |
| CCn1c(=O)[nH]c2ccccc21 | Cytochrome P450 1A2 (Homo sapiens) (UniProt P05177) | 1.0 |
| CN1[C@H](CC(=O)c2ccccc2)CCC[C@H]1C[C@H](O)c1ccccc1 | Cytochrome P450 1A2 (Homo sapiens) (UniProt P05177) | 1.0 |
| N[C@@H](Cn1cc(I)c(=O)n(Cc2ccc(C(=O)O)cc2)c1=O)C(=O)O | Cytochrome P450 1A2 (Homo sapiens) (UniProt P05177) | 1.0 |
| Fc1ccc(C(c2ccc(F)cc2)N2CCN(C/C=C\c3ccccc3)CC2)cc1 | Cytochrome P450 1A2 (Homo sapiens) (UniProt P05177) | 1.0 |
| O=C(O)[C@H]1CN(CCCP(=O)(O)O)CCN1 | Cytochrome P450 1A2 (Homo sapiens) (UniProt P05177) | 0.0 |
| COc1cc(/C=C(\C#N)C(N)=O)cc(CSc2nc3ccccc3s2)c1O | Cytochrome P450 1A2 (Homo sapiens) (UniProt P05177) | 1.0 |

* * *

Assay: NFAT Signaling Pathway (AID 444);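 also: carbachol stimulus at about its EC50 of 1 µM final; % is scaled to controls: 0 for no effect and ±100 for the full control effect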
Settings: Jurkat NFAT-bla M1, carbachol, beta-lactamase ratio, 5 h; at 38 µM (top of the series)
Protocol: NCGC Assay Overview: The nuclear factor of activated T cells (NFAT) family of transcription factors has been found primarily in most immune system cells and some other non-immune cells. NFAT plays the immunomodulatory role, primarily in T-cell activation and differentiation. […] NCGC Assay Protocol Summary: The cells were prepared in RPMI 1640 medium containing 0.1% dialyzed FBS and 25 mM HEPES at 1.6 x 10^6cell/ml. […] The %Activity was determined from the ratio of 460nm/530nm. […]
Results filed as inconclusive are left out.

| MOLECULAR_STRING | READOUT_UNIT | activity change, negative = inhibition |
| --- | --- | --- |
| O=C(O)[C@H]1CN(CCCP(=O)(O)O)CCN1 | % | 8.84 |
| C=C[C@H](N)CCC(=O)O | % | 2.77 |
| Oc1cc2c(cc1O)[C@H](c1ccccc1)CNCC2 | % | -1.81 |
| N#CC(=C(/N)Sc1ccccc1N)/C(C#N)=C(/N)Sc1ccccc1N | % | 8.23 |
| O=C(NCCNC[C@@H](O)COc1ccc(O)cc1)N1CCOCC1 | % | -2.2 |
| C[C@@H]1C[C@@H]2[C@H]3CCC4=CC(=O)C=C[C@]4(C)[C@]3(F)[C@@H](O)C[C@@]2(C)[C@@]1(O)C(=O)CO | % | 7.2 |

* * *

Test: qHTS for Inhibitors of Plasmodium falciparum (HB3) proliferation (AID 504318); also: nearly all actives have a fitted effect of over 60% in size
Settings: P. falciparum HB3 in erythrocytes, SYBR Green DNA, 72 h; series mostly up to 7.21 µM
Results filed as inconclusive are left out. The source made the active and inactive calls. Calls follow the shape of the dose curve; as a rule, active = well fitted inhibition curve with a large enough effect; inconclusive = small, poorly fitted or top-dose-only effect; inactive = flat fitted curve, though single readings scatter.
Labels: label 1 = active, label 0 = inactive

| COMPOUND | LABEL_CLASS |
| --- | --- |
| C[C@@H]1C[C@](C)(C(=O)c2ccc3c(c2)OCO3)C=C1c1ccc2c(c1)OCO2 | label 0 |
| COC(=O)C1=C(C)N(Cc2ccccc2)C(=NCCc2c[nH]c3ccccc23)NC1c1cccc(F)c1 (stereo not given) | label 0 |
| C=C(CCN1C=C(C(C)=O)C(c2ccccc2)NC1=O)c1ccc(OC)cc1 (stereo not given) | label 0 |
| COc1ccc2c(c1)C(=O)[C@@H](OC(=O)NS(=O)(=O)c1ccc(F)cc1)[C@H](c1ccc(OC)c(Br)c1)O2 | label 0 |
| CCCCCCCc1cc2ccccc2c2c(C(=O)OCC)c(C(=O)OCC)c(C(=O)OCC)n12 | label 0 |
| CC1(OC(=O)C2CCCC2)C(=O)C=C2C=C(c3ccsc3)N(C3CCCC3)C=C2C1=O (stereo not given) | label 0 |
| CC(=O)C1=C(C)N(Cc2ccccc2)C(=O)NC1c1ccc(Br)cc1 (stereo not given) | label 0 |
| COC(=O)C1=C(C)N(Cc2ccccc2)C(=NCc2cc(OC)c(OC)c(OC)c2)NC1CCc1ccccc1 (stereo not given) | label 1 |
| C=CCN1C(=O)[C@@]2(CC(C)=CC[C@@H](C)O2)c2c(Br)cccc21 | label 0 |
| CC(CCC(=O)OC[C@H]1O[C@H](C#Cc2ccccc2)C=C[C@H]1Oc1ccc(C)cc1)=NOC[C@@H](O)[C@H]1O[C@@H]2OC(C)(C)O[C@H]2[C@@H]1O | label 0 |
| CC(C)=CCN1C(=O)[C@]2(OCCC=C[C@H]2C)c2c(Br)cccc21 | label 0 |
| COC(=O)[C@H](COC(C)(C)C)NC(=O)O[C@@H]1C(=O)c2ccc(OC)cc2O[C@H]1c1cccc(C(F)(F)F)c1 | label 0 |
| CCCC[C@@H]1CN2[C@@H](CC[C@H](C)[C@@H]2c2ccc(Br)cc2)C(=O)O1 | label 0 |
| O=C(Oc1ccccc1)[C@H]1O[C@H]1c1ccccc1 | label 0 |
| O=C1CCC=C1C(O)c1ccccc1 (stereo not given) | label 0 |
| C=C(C)CCCN1C=C(C(C)=O)C(c2ccccc2)NC1=O (stereo not given) | label 0 |
| CC(C)(C)Nc1oc(-c2ccccc2)nc1C=Cc1ccccc1 | label 1 |
| C=C[C@H](C)[C@](C)(O)c1ccccc1 | label 0 |
| C=C(C)C(O)C=Cc1ccccc1OC (stereo not given) | label 0 |
| O=C1[C@H]2[C@@H]3[C@@H](O)[C@H](O)CC(=NOCc4ccccc4)[C@@H]3CC[C@H]2C(=O)N1C[C@@H]1CCCO1 | label 0 |

* * *

Tested on: Zika virus NS2B-NS3 protease
Assay: Primary screen GU AMC qHTS for Zika virus inhibitors (AID 1347154);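 also: 0% = no-inhibitor control and -100% = no-enzyme control; nearly all actives have a fitted effect of over 70% in size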
Settings: Zika NS2B-NS3 unlinked protease, AMC fluorogenic substrate; series mostly up to 54.1 µM
Results filed as inconclusive are left out. The source made the active and inactive calls. The call rests on the fitted dose curve; in most records, active means well fitted inhibition curve with a large enough effect; inconclusive means small, poorly fitted or top-dose-only effect; inactive means flat fitted curve, though single readings scatter.
MEASURED_QUANTITY: activity change, negative = inhibition

| MOLECULAR_STRING | SUBJECT_OF_TEST | RESULT |
| --- | --- | --- |
| CCCCCCCC/C=C\C/C=C\C/C=C\CCCC(=O)O | Zika virus NS2B-NS3 protease | -5.55% [at 6.83 µM] (inactive) |
| CC#CCOC(=O)C1=CCCN(C)C1 | Zika virus NS2B-NS3 protease | inactive |
| O=Cc1c2[nH]c3ccccc3c2cc2[nH]c3ccccc3c12 | Zika virus NS2B-NS3 protease | inactive |
| CCCCCCCCCCCCC/C=C/[C@@H](O)[C@H](CO)NC(=O)CCCCCCCCCCCCCCC | Zika virus NS2B-NS3 protease | 22% [at 6.83 µM] (inactive) |
| O=C(NCCCCCCNC(=O)ON=C1CCCCC1)ON=C1CCCCC1 | Zika virus NS2B-NS3 protease | inactive |
| N[C@]1(C(=O)O)CCc2cc(C(=O)O)ccc21 | Zika virus NS2B-NS3 protease | inactive |
